System: DRIVER-selected RNA biosensor (aptazyme) pool
assay.overview: maximum fold change of ribozyme cleavage across biosensor pool versus no-compound control; higher = stronger biosensor response (ligand inhibits cleavage)
test.context: 10 µM
Assign class by maximum fold change: not lower than 3 means True; lower than 3 means False.

>>> print(df.to_string())
                                    compound  classification
 0  CCOC(=O)N1CCC(NC(=O)c2ccc(CS(=O)c3cccc(C)c3)o2)CC1 (configuration not stated)           False
 1  COCCN1C(=O)c2ccccc2C(C(=O)N2CCC(C)CC2)C1c1cn(C)c2ccccc12 (configuration not stated)            True
 2  Cc1cc(NC(=O)CSc2nnc(-c3ccc(C)c(C)c3)o2)no1           False
 3          CCOC(=O)c1cnc(SCc2cccc(C)c2)nc1N            True
 4  COc1cccc(C(=O)/C=C2/Nc3ncc(Br)cc3NC2=O)c1            True
 5  COCCNC(=O)c1ccc(CS(=O)Cc2ccc(Cl)cc2)o1 (configuration not stated)            True
 6              CC(=O)c1c(C)[nH]c2ccccc2c1=O           False
 7            N/C(=N\OC(=O)N1CCOCC1)c1cccnc1            True
 8  COc1ccc2nc3oc(C(=O)NCCCN4CCC(Cc5ccccc5)CC4)cc3cc2c1            True
 9  CC1=[N+](CCCS(=O)(=O)O)SC2C=CC(Cl)=CC12 (configuration not stated)           False
10  COc1cc(-c2nc3n(n2)C(c2ccncc2)C(C(N)=O)=C(C)N3)cc(OC)c1OC (configuration not stated)           False
11  Cc1cc(C)c(Cn2c(C)c(CNCc3cccc(Cl)c3)c(C(=O)O)c2C)c(C)c1           False
12  Cc1cc(C)c2c(-n3cccc3)c(C(=O)NCc3ccc4c(c3)OCO4)sc2n1            True
13  Cc1ccc(-c2nc(CS(=O)(=O)CC(=O)NCCCN(C)Cc3ccccc3)c(C)o2)cc1            True
14  N#C/C(=Cc1c(Oc2ccccc2Cl)nc2n(c1=O)cccc2)/c1nc2c([nH]1)cccc2            True
15    CCOC(=O)c1cnc2c(C)c(Cl)ccc2c1NCc1ccco1            True
16  Cn1c(=O)[nH]c(=O)c2c1nc(NCCCn1ccnc1)n2CCCc1ccccc1           False
17  O=C(CCc1ccccc1)N1CCC(c2ccccc2)C1 (configuration not stated)           False
18  Cc1c(CNC2CCCc3ccccc32)c(C(=O)O)c(C)n1Cc1ccc(F)cc1 (configuration not stated)           False
19  OCCCN/C=C/1C(=O)CC(CC1=O)c1ccc(cc1)OC (configuration not stated)           False
20  COc1cc(OC)c(OC)cc1/C=C1N=C(c2ccco2)OC1=O           False
